# System: LXRb:RXRa (NR concentration 270 nM, RXRa partner concentration 90 nM)
# Test Protocol: PBM binding z-score (relative to random genomic background probes); higher = stronger binding; sequences stand for … in GC…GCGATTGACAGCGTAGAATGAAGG
Binned PBM binding z-score; ranges: low value: < 0.4; medium value: ≥ 0.4 and < 2; high value: ≥ 2

Macromolecule Sequence	Category
TTGCCTAGGTCATGCGGGCCAGTATAGTGTCGGC	medium value
TCTGCTAAGTCAGTTGGTCAGCTAACGAGCTGCC	low value
TCTTGTCGATCAGCAGGTTAAGAAAGCTGGCCAA	low value
CCGACTGGGGCATAAGGTTACAATAAGCCAGCCC	medium value
CCGACTGGGGCAAGGTTACCATCACGCACAGCCA	medium value
GGAACGAGGGCATTCGAATTGATAGCATGGCGAT	low value
GCCGCTAGGTCAGGTTGGTCAGCTAACGGGTACG	medium value
GCTCGGAGGACAGGGTCAGAGCTTTGTCCGTAGA	medium value
TCATATAGATAAACAGGTGAAAGTCCGTAAGTTA	medium value
CGTCCAAGCTCAATGCTAGGTCAGTGAAAGCATT	low value
ACTATTAGTTGAGACGAGGGCAATCGATAGGTTG	low value
CAGACTAGGTCACGAAAGGTCAAAGTCGAATGAC	high value
CTCGAAAGGTCGTGCTCAGGTGAGTATCCCAAAC	high value
CGAACTAGGTCAGAACAGGACTGTGAAGGATGAT	low value
GTACCAAGGTGAATAGGCCGTTGATGAGTAGGCG	low value
CGTCCAAGGTCATAGGAAGTCAGTGAAGACAGAT	high value
GATACAGGGTCAGCTAGGGGCCAGAGTATGGAAA	high value
GGAACGAGGACAAAGTTGATAGCATCTGTCGACG	low value
TCTTGGAGGACACGAAAGGTCAGAGCTCGACATC	high value
GGAACGAGGGCAAGTTGATATCAGAGTTTGATGG	medium value
TGAATGAGGTTACAGATCAGGGAACGTGGCGTCG	medium value
CCTAGTTGGTCAAGGTCAGACACGCTATAGGTAC	high value

====

# Test system: RARb:RXRa (NR concentration 270 nM, RXRa partner concentration 90 nM)
# Test Protocol: PBM binding z-score (relative to random genomic background probes); higher = stronger binding; sequences stand for … in GC…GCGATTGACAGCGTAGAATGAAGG
Measured PBM binding z-score accompanies every entry in the list below.
Measurement Type: PBM binding z-score

Macromolecule Sequence	Endpoint Value
TCTCGGAAGACACGAAGGTCAGAGCTTTCCAGAG	2.27
TCTTGTAGATCAAGCAGTTTAAGAAAGCCTGAGT	-0.137
TCGAGTATGTTAGTCGGGGCATTCAGCCAACATA	0.204
AGAATGAGGTTATACTTAGATCAGGGAAGAAAGT	1.3
ATCTCTAGGTAACCAGTTCAGTGAAAGAGAGGAC	0.835
CCTAACGGGTCACGAGGTTATAGCACGACGAGCG	4.27
TCTTGTAGATCAAGCAAGTTAAGAAAGCCTGAGT	0.115
GCTTACGGGTCAAAGGTTATAGCATGAATAGAAT	4.79
GAGACAGGGTCAGCTAGAGGCCAGAGTATGGAAA	4.09
AGAATGAGGTTCAGATCAGGGAAACAGAATACAT	0.706
TTACCAAGGTGAGCTGAGGTCGTTGATCCAACTC	1.93
CCTAGTTGGTGAGGAGGTCACACACCGGATATGA	3.1
TTACCACGGTGAAAGGTCGTTGATGCACGCCTTG	1.94
CCTTACGGGTCACTGACTGGTTATAGCATTTGGA	4.02
CTCGAATGGTCGTGCTCAGGTGAGTATACCAAAC	0.0892
TCTATTAGTTGAATGGCAACCGACGAGTCCGTTT	0.622
TAGCATAGGTCAGATCGGGCCAGTATACGCTATA	3.37
CCGAGTAGGTTATGGGACATTCAGGCAACGGTGA	0.813
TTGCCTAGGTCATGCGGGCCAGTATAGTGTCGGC	3.82
TAGCCTAGGTCATTGAGGGGCCAGTATAGAAAGC	3.93
TCATATAGGTAAATGCGAGGTGAAAGTCCGATCT	0.77
TAGCCTAGGTCTTGGGCCAGTATACCACGCGAAC	0.162
CGTCAAAGTTGAACTAAGGTAACGTAAAGCACGC	2.17
CTCGAAAGGTCGCGCTCAGGTGAGTATACCAAAC	4.46
ATCGAAAGGCCGAAGGTGAGTATACCCACCCGAA	1.04
ACTTACGGGTCAACGAGGTTCTAGCACGCGTATA	4.12
TCAGATAGGTGAAGGTAACTCAGGTACGCAGTCG	1.1
CCTACTGGGCCATTCAGAGGTCATTGAACATATG	3.23
TCATATAGGTAAAAGGTGAAAGTTGGTGTGGTAA	2.09
ATCGAAAGGTTGAGGTGAGTATAGAGAAAGGGAA	1.79

Cited source for all entries: the supplement of paper PMC6555819
